This listing pairs compounds with measured IC50.
target: PLK1 (Homo sapiens, UniProt P53350); construct: PLK kinase domain (amino acids 21-346 preceded by MKKGHHHHHHD); made in house; host or cells: baculovirus infected T. ni cells; test: Assay for inhibition of PLK1 (SPA kinase assay); format: biochemical; details: 1 μM ATP, 2 nM PLK1 kinase domain, read-out: PLK1 pIC50 (converted)
Sequence (P53350 21-346): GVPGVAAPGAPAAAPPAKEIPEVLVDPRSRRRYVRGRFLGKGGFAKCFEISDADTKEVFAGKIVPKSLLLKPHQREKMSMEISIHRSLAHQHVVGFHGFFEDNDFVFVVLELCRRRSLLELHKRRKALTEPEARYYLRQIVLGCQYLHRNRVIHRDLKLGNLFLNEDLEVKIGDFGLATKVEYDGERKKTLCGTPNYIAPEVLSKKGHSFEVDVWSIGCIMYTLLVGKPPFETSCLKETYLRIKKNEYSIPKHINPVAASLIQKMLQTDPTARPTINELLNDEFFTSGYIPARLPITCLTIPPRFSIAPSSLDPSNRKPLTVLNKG

# Smiles Entry, Target Or Test System, IC50
measured = [
    ("COc1cc2ncn(-c3cc(O[C@H](C)c4cccc(NCC5CCNCC5)c4Cl)c(C(N)=O)s3)c2cc1OC", "PLK1 (Homo sapiens, UniProt P53350)", "< 0.1 µM"),
    ("COc1cc2ncn(-c3cc(O[C@H](C)c4cccc(OCCN5CCN(C)CC5)c4Cl)c(C(N)=O)s3)c2cc1OC", "PLK1 (Homo sapiens, UniProt P53350)", "< 0.1 µM"),
    ("CCN1CCC(Oc2cccc([C@@H](C)Oc3cc(-n4cnc5cc(Cl)ccc54)sc3C(N)=O)c2Cl)CC1", "PLK1 (Homo sapiens, UniProt P53350)", "< 0.1 µM"),
]
